Origin of measurements: paper PMC6491428

Entries and their pKd
Test system: TH3N2 (influenza A H3N2 target protein; protein identity not stated in the material) (Influenza A virus H3N2 (strain not stated))
Experiment: SPR
pKd: −log10 of the molar value.
MEASURED QUANTITY: pKd

1. AGCAGCACAGAGGTCAGATGCTAGCCGTGAGCGTGGTGAGCTCGGTTGACCCTATCGCTGCTACCGTGAA [Apt01>TH3N2]
9.85
2. AGCAGCACAGAGGTCAGATGGCGCGGGCGGTGCGTCGGTGTCCCGCTGGCCTATCGCTGCTACCGTGAA [Apt03>TH3N2]
9.22
3. AGCAGCACAGAGGTCAGATGGTGGTTGTTTTGGGCGAAGTGGCCATGGTCCCTATCGCTGCTACCGTGAA [Apt02>TH3N2]
8.77
4. AGCAGCACAGAGGTCAGATGTCTGCAGCGTGCAGGGCTGTGTGCTTACCCCCTATCGCTGCTACCGTGAA [Apt04>TH3N2]
10.06

----------
Test system: TH1N1 (influenza A H1N1 target protein; protein identity not stated in the material) (Influenza A virus H1N1 (strain not stated))
Assay: SPR
Recorded measurements of Kd, one per entry
MEASURED QUANTITY: Kd (nM)

1. AGCAGCACAGAGGTCAGATGATTGGATCGTGACGGTTGTTGGGGCTCCGCCTATCGCTGCTACCGTGAA [Apt01>TH1N1]
35000
2. AGCAGCACAGAGGTCAGATGTGTGCGTGCTTGGGGTATAGTCGGGTCGGCCTATCGCTGCTACCGTGAA [Apt04>TH1N1]
1.6
3. AGCAGCACAGAGGTCAGATGTAGGTCGTACTCTGGCGGCCTGTTTGGCCCTATCGCTGCTACCGTGAA [Apt03>TH1N1]
0.082
4. AGCAGCACAGAGGTCAGATGAGGTGATGAGATTTGTACCTCTCGCGGCACCCTATCGCTGCTACCGTGAA [Apt02>TH1N1]
57

----------
System: TH1N1 (influenza A H1N1 target protein; protein identity not stated in the material) (Influenza A virus H1N1 (strain not stated))
Assay: electrochemical DPV (Apta-DEPSOR)
MEASURED QUANTITY: binding signal

1) AGCAGCACAGAGGTCAGATGTGTGCGTGCTTGGGGTATAGTCGGGTCGGCCTATCGCTGCTACCGTGAA [Apt04>TH1N1]
1.23 µA (Ipc)
2) AGCAGCACAGAGGTCAGATGATTGGATCGTGACGGTTGTTGGGGCTCCGCCTATCGCTGCTACCGTGAA [Apt01>TH1N1]
0.85 µA (Ipc)
3) AGCAGCACAGAGGTCAGATGAGGTGATGAGATTTGTACCTCTCGCGGCACCCTATCGCTGCTACCGTGAA [Apt02>TH1N1]
2.26 µA (Ipc)
4) AGCAGCACAGAGGTCAGATGTAGGTCGTACTCTGGCGGCCTGTTTGGCCCTATCGCTGCTACCGTGAA [Apt03>TH1N1]
3.37 µA (Ipc)

----------
Listing of entries alongside the reported binding signal.
System: TH3N2 (influenza A H3N2 target protein; protein identity not stated in the material) (Influenza A virus H3N2 (strain not stated))
Experiment: electrochemical DPV (Apta-DEPSOR)
MEASURED QUANTITY: binding signal

1. AGCAGCACAGAGGTCAGATGTCTGCAGCGTGCAGGGCTGTGTGCTTACCCCCTATCGCTGCTACCGTGAA [Apt04>TH3N2]
1.61 µA (Ipc)
2. AGCAGCACAGAGGTCAGATGCTAGCCGTGAGCGTGGTGAGCTCGGTTGACCCTATCGCTGCTACCGTGAA [Apt01>TH3N2]
1.73 µA (Ipc)
3. AGCAGCACAGAGGTCAGATGGCGCGGGCGGTGCGTCGGTGTCCCGCTGGCCTATCGCTGCTACCGTGAA [Apt03>TH3N2]
1.11 µA (Ipc)
4. AGCAGCACAGAGGTCAGATGGTGGTTGTTTTGGGCGAAGTGGCCATGGTCCCTATCGCTGCTACCGTGAA [Apt02>TH3N2]
1.16 µA (Ipc)
